Assign viability, T/C to each entry below.
- System: NCI-H510 multicellular tumor spheroid growth, % test/control
- assay.name: Anticancer human tumor NCI-H510 cell line growth inhibition [Asc];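 also: spheroids exposed to agents for 7 days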;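 as to viability, T/C: 100% = DMSO vehicle control wells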
- condition.context: second compound 0.316 µM; first compound 1 µM; stronger effect = lower value
Answers are plain numbers, in %.

// below: answered molecules
CNC(C)C(=O)NC1CN(S(=O)(=O)c2cccc(S(=O)(=O)N3CCC4CCC(C(=O)NC(c5ccccc5)c5ccccc5)N4C(=O)C(NC(=O)C(C)NC)C3)c2)CCC2CCC(C(=O)NC(c3ccccc3)c3ccccc3)N2C1=O (stereo not drawn) + Cc1c(S(C)(=O)=O)c(-c2cc(F)cc(N3CCN(c4ccc(NS(=O)(=O)c5ccc(NC(CCN6CCC(C(=O)OCCCP(=O)(O)O)CC6)CSc6ccccc6)c(S(=O)(=O)C(F)(F)F)c5)cc4)CC3)c2)c(-c2ccc(Cl)cc2)n1C(C)C : 112
O=C(c1cc(Cc2n[nH]c(=O)c3ccccc23)ccc1F)N1CCN(C(=O)C2CC2)CC1 + CNC(C)C(=O)NC1CN(S(=O)(=O)c2cccc(S(=O)(=O)N3CCC4CCC(C(=O)NC(c5ccccc5)c5ccccc5)N4C(=O)C(NC(=O)C(C)NC)C3)c2)CCC2CCC(C(=O)NC(c3ccccc3)c3ccccc3)N2C1=O : 87.5

Let's switch to this molecule now.
[ask] Given the molecule C#Cc1c(F)ccc2cc(O)cc(-c3ncc4c(N5CC6CCC(C5)N6)nc(OCC56CCCN5CC(F)C6)nc4c3F)c12 (stereo not drawn) + Cc1c(S(C)(=O)=O)c(-c2cc(F)cc(N3CCN(c4ccc(NS(=O)(=O)c5ccc(NC(CCN6CCC(C(=O)OCCCP(=O)(O)O)CC6)CSc6ccccc6)c(S(=O)(=O)C(F)(F)F)c5)cc4)CC3)c2)c(-c2ccc(Cl)cc2)n1C(C)C , what is its reported viability, T/C?
[reply] 91.7

---

- System: NCI-H510 multicellular tumor spheroid growth, % test/control
- assay.name: Anticancer human tumor NCI-H510 cell line growth inhibition [Asc];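 also: spheroids exposed to agents for 7 days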
- condition.context: curve of first compound; second compound 3.16 µM
pIC50: −log10 of the molar value.
Assign pIC50 to each entry below.

// below: answered compounds
NC1CCC(NC2CC2c2ccccc2)CC1 (stereo not drawn) + Cc1c(S(C)(=O)=O)c(-c2cc(F)cc(N3CCN(c4ccc(NS(=O)(=O)c5ccc(NC(CCN6CCC(C(=O)OCCCP(=O)(O)O)CC6)CSc6ccccc6)c(S(=O)(=O)C(F)(F)F)c5)cc4)CC3)c2)c(-c2ccc(Cl)cc2)n1C(C)C : < 7.00
Cn1ncnc1[C@H]1c2n[nH]c(=O)c3cc(F)cc(c23)N[C@@H]1c1ccc(F)cc1 + Cc1c(S(C)(=O)=O)c(-c2cc(F)cc(N3CCN(c4ccc(NS(=O)(=O)c5ccc(NC(CCN6CCC(C(=O)OCCCP(=O)(O)O)CC6)CSc6ccccc6)c(S(=O)(=O)C(F)(F)F)c5)cc4)CC3)c2)c(-c2ccc(Cl)cc2)n1C(C)C : 8.16
Cc1nc(N2CCC3(CC2)COC(C)C3N)c(CO)nc1Sc1ccnc(N)c1Cl (stereo not drawn) + Cc1c(S(C)(=O)=O)c(-c2cc(F)cc(N3CCN(c4ccc(NS(=O)(=O)c5ccc(NC(CCN6CCC(C(=O)OCCCP(=O)(O)O)CC6)CSc6ccccc6)c(S(=O)(=O)C(F)(F)F)c5)cc4)CC3)c2)c(-c2ccc(Cl)cc2)n1C(C)C : < 5.52
O=C(c1ccc(F)c(F)c1Nc1ccc(I)cc1F)N1CC(O)([C@@H]2CCCCN2)C1 + Cc1c(S(C)(=O)=O)c(-c2cc(F)cc(N3CCN(c4ccc(NS(=O)(=O)c5ccc(NC(CCN6CCC(C(=O)OCCCP(=O)(O)O)CC6)CSc6ccccc6)c(S(=O)(=O)C(F)(F)F)c5)cc4)CC3)c2)c(-c2ccc(Cl)cc2)n1C(C)C : < 6.00
O=C(c1cc(Cc2n[nH]c(=O)c3ccccc23)ccc1F)N1CCN(C(=O)C2CC2)CC1 + Cc1c(S(C)(=O)=O)c(-c2cc(F)cc(N3CCN(c4ccc(NS(=O)(=O)c5ccc(NC(CCN6CCC(C(=O)OCCCP(=O)(O)O)CC6)CSc6ccccc6)c(S(=O)(=O)C(F)(F)F)c5)cc4)CC3)c2)c(-c2ccc(Cl)cc2)n1C(C)C : 5.94

List reported pIC50 for each of these compounds:
1. C=CC(=O)N1CCN(c2nc(=O)n(-c3c(C)ccnc3C(C)C)c3nc(-c4c(O)cccc4F)c(F)cc23)C(C)C1 (stereo not drawn) + Cc1c(S(C)(=O)=O)c(-c2cc(F)cc(N3CCN(c4ccc(NS(=O)(=O)c5ccc(NC(CCN6CCC(C(=O)OCCCP(=O)(O)O)CC6)CSc6ccccc6)c(S(=O)(=O)C(F)(F)F)c5)cc4)CC3)c2)c(-c2ccc(Cl)cc2)n1C(C)C
2. CCN1CCN(Cc2ccc(Nc3ncc(F)c(-c4cc(F)c5nc(C)n(C(C)C)c5c4)n3)nc2)CC1 + Cc1c(S(C)(=O)=O)c(-c2cc(F)cc(N3CCN(c4ccc(NS(=O)(=O)c5ccc(NC(CCN6CCC(C(=O)OCCCP(=O)(O)O)CC6)CSc6ccccc6)c(S(=O)(=O)C(F)(F)F)c5)cc4)CC3)c2)c(-c2ccc(Cl)cc2)n1C(C)C
3. COc1c(OCCCN2CCOCC2)ccc2c3n(c(=NC(=O)c4cnc(N)nc4)nc12)CCN3 + Cc1c(S(C)(=O)=O)c(-c2cc(F)cc(N3CCN(c4ccc(NS(=O)(=O)c5ccc(NC(CCN6CCC(C(=O)OCCCP(=O)(O)O)CC6)CSc6ccccc6)c(S(=O)(=O)C(F)(F)F)c5)cc4)CC3)c2)c(-c2ccc(Cl)cc2)n1C(C)C
4. CNC(C)C(=O)NC1CN(S(=O)(=O)c2cccc(S(=O)(=O)N3CCC4CCC(C(=O)NC(c5ccccc5)c5ccccc5)N4C(=O)C(NC(=O)C(C)NC)C3)c2)CCC2CCC(C(=O)NC(c3ccccc3)c3ccccc3)N2C1=O (stereo not drawn) + Cc1c(S(C)(=O)=O)c(-c2cc(F)cc(N3CCN(c4ccc(NS(=O)(=O)c5ccc(NC(CCN6CCC(C(=O)OCCCP(=O)(O)O)CC6)CSc6ccccc6)c(S(=O)(=O)C(F)(F)F)c5)cc4)CC3)c2)c(-c2ccc(Cl)cc2)n1C(C)C
5. C#Cc1c(F)ccc2cc(O)cc(-c3ncc4c(N5CC6CCC(C5)N6)nc(OCC56CCCN5CC(F)C6)nc4c3F)c12 (stereo not drawn) + Cc1c(S(C)(=O)=O)c(-c2cc(F)cc(N3CCN(c4ccc(NS(=O)(=O)c5ccc(NC(CCN6CCC(C(=O)OCCCP(=O)(O)O)CC6)CSc6ccccc6)c(S(=O)(=O)C(F)(F)F)c5)cc4)CC3)c2)c(-c2ccc(Cl)cc2)n1C(C)C
6. NC(=O)C(=Cn1cnc(-c2cc(C(F)(F)F)cc(C(F)(F)F)c2)n1)c1cncnc1 + Cc1c(S(C)(=O)=O)c(-c2cc(F)cc(N3CCN(c4ccc(NS(=O)(=O)c5ccc(NC(CCN6CCC(C(=O)OCCCP(=O)(O)O)CC6)CSc6ccccc6)c(S(=O)(=O)C(F)(F)F)c5)cc4)CC3)c2)c(-c2ccc(Cl)cc2)n1C(C)C

[reply]
1. < 5.00
2. 6.19
3. < 6.00
4. < 6.00
5. < 5.00
6. 6.77

List reported pIC50 for each of these compounds:
1. C=C(F)C(=O)N1CCN(c2nc(OCC3CCCN3C)nc3c2CCN(c2cccc4cccc(Cl)c24)C3)CC1CC#N (stereo not drawn) + Cc1c(S(C)(=O)=O)c(-c2cc(F)cc(N3CCN(c4ccc(NS(=O)(=O)c5ccc(NC(CCN6CCC(C(=O)OCCCP(=O)(O)O)CC6)CSc6ccccc6)c(S(=O)(=O)C(F)(F)F)c5)cc4)CC3)c2)c(-c2ccc(Cl)cc2)n1C(C)C
2. CCN1C(C(=O)NC23CCC(C(=O)O)(CC2)CC3)C(c2cccc(Cl)c2F)C2(C(=O)Nc3cc(Cl)ccc32)C12CCCCC2 (stereo not drawn) + Cc1c(S(C)(=O)=O)c(-c2cc(F)cc(N3CCN(c4ccc(NS(=O)(=O)c5ccc(NC(CCN6CCC(C(=O)OCCCP(=O)(O)O)CC6)CSc6ccccc6)c(S(=O)(=O)C(F)(F)F)c5)cc4)CC3)c2)c(-c2ccc(Cl)cc2)n1C(C)C

[reply]
6.02
< 5.52

---

- System: NCI-H510 multicellular tumor spheroid growth, % test/control
- assay.name: Anticancer human tumor NCI-H510 cell line growth inhibition [Asc]; active = viability on the fitted dose curve at most 10% of control; inactive = the rest;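 also: spheroids exposed to agents for 7 days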
- condition.context: second compound 0.01 µM; first compound 10 µM
- Source text: Multicellular complex tumor spheroid response to apoptosis pathway targeting inhibitors Alrizomadlin, Pelcitoclax, and Dasminapant in combination with a variety of drugs and investigational agents in selected tumor cell lines […] Compounds. […] If the clinical Cmax for an agent had not been determined, the highest concentration tested was 10 microM. […]
Your response should consist of one outcome taken from 1 (yes) (active), 0 (no) (inactive)

O=C(c1cc(Cc2n[nH]c(=O)c3ccccc23)ccc1F)N1CCN(C(=O)C2CC2)CC1 + CNC(C)C(=O)NC1CN(S(=O)(=O)c2cccc(S(=O)(=O)N3CCC4CCC(C(=O)NC(c5ccccc5)c5ccccc5)N4C(=O)C(NC(=O)C(C)NC)C3)c2)CCC2CCC(C(=O)NC(c3ccccc3)c3ccccc3)N2C1=O : 0 (no)
C#Cc1c(F)ccc2cc(O)cc(-c3ncc4c(N5CC6CCC(C5)N6)nc(OCC56CCCN5CC(F)C6)nc4c3F)c12 (centres undefined) + CNC(C)C(=O)NC1CN(S(=O)(=O)c2cccc(S(=O)(=O)N3CCC4CCC(C(=O)NC(c5ccccc5)c5ccccc5)N4C(=O)C(NC(=O)C(C)NC)C3)c2)CCC2CCC(C(=O)NC(c3ccccc3)c3ccccc3)N2C1=O : 0 (no)
C=CC(=O)N1CCN(c2nc(=O)n(-c3c(C)ccnc3C(C)C)c3nc(-c4c(O)cccc4F)c(F)cc23)C(C)C1 (centres undefined) + CNC(C)C(=O)NC1CN(S(=O)(=O)c2cccc(S(=O)(=O)N3CCC4CCC(C(=O)NC(c5ccccc5)c5ccccc5)N4C(=O)C(NC(=O)C(C)NC)C3)c2)CCC2CCC(C(=O)NC(c3ccccc3)c3ccccc3)N2C1=O : 0 (no)

Read the next record carefully.
[ask] Given C=C(F)C(=O)N1CCN(c2nc(OCC3CCCN3C)nc3c2CCN(c2cccc4cccc(Cl)c24)C3)CC1CC#N (centres undefined) + CNC(C)C(=O)NC1CN(S(=O)(=O)c2cccc(S(=O)(=O)N3CCC4CCC(C(=O)NC(c5ccccc5)c5ccccc5)N4C(=O)C(NC(=O)C(C)NC)C3)c2)CCC2CCC(C(=O)NC(c3ccccc3)c3ccccc3)N2C1=O , state the outcome it received in this test.
[reply] 1 (yes)
